Experiment: SK-BR-3 cell growth inhibitors, pilot screen, 24 h, human (AID 572);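 further: compound exposure lasted between 18 and 24 h rather than exactly 24 h; 100% = carrier-treated control wells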
Details: SK-BR-3 viability, CellTiter-Glo luminescence, at 10 µM, stronger effect = lower value
Activity calls are given as the source filed them.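 How the source made its calls: active means viability at or below 10% of carrier control in both of two separate runs; inconclusive means viability at or below 10% in only one of the two runs; inactive means the rest.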
QUANTITY MEASURED: viability

{"COMPOUND": "CC(=O)Nc1c(I)c(NC(C)=O)c(I)c(C(=O)O)c1I", "QUANTITY MEASURED": "viability", "REPORTED RESULT": "89% (inactive)"}
{"COMPOUND": "COc1ccc(NC(=O)Cn2nnc(-c3ccccc3F)n2)cc1Cl", "QUANTITY MEASURED": "viability", "REPORTED RESULT": "116% (inactive)"}

Qu. What value of viability has been reported for the following compound? COc1ccc(Cn2nnnc2C(c2cccnc2)N2CCN(c3ccc(O)cc3)CC2)cc1 (configuration not stated)
Ans. 99.5% (inactive)

Qu. And for `CC(C)Sc1nc(N2CCCC2)c2c(c1C#N)CC(C)(C)OC2` ?
Ans. 90% (inactive)

* * *

Some compounds, each annotated with its measured inhibition.
Assay: growth suppression of yeast trafficking mutant, preliminary HTS, modulators of trafficking downstream of Golgi apparatus project, 1536-format plate, OD 615 nm (AID 637)
Details: yeast transport mutant growth, absorbance 615 nm, 18 h; stronger effect = higher value
A number alone suffices; assume %.

{"SMILES STRUCTURE": "CCCc1cc(-c2n[nH]c(C)c2-c2ccc(C(=O)OCC)o2)c(O)cc1O", "inhibition, %": 1.45}
{"SMILES STRUCTURE": "CCN(C(=O)c1c(-c2ccccc2)noc1C)c1ccccc1", "inhibition, %": 14.9}
{"SMILES STRUCTURE": "O=C(NCc1ccccc1)N[C@@H](Cc1ccccc1)C(=O)O", "inhibition, %": 3.5}
{"SMILES STRUCTURE": "O=C(NC1=NCCS1)c1nc(-c2ccccc2)n(-c2ccccc2)n1", "inhibition, %": 0.63}
{"SMILES STRUCTURE": "Cc1ccc2c(CC(=O)OCc3csc(C)n3)coc2c1", "inhibition, %": 3.77}

Please examine the following record next.
Qu. For the compound shown here, `COC(=O)c1[nH]c2ccc(C)cc2c1NC(=O)CN1CCC(C)CC1` , give the reported inhibition.
Ans. -2.73

* * *

Assay: reversal of MRP1-mediated doxorubicin resistance, pilot screen, H69AR cells, doxorubicin co-treatment (AID 601)
Settings: H69AR cells + 2 uM doxorubicin, CellTiter-Glo, 72 h; measured here: viability with 2 uM doxorubicin; at 10 µM; stronger effect = lower value
Labelling field: enter t if recorded viability is less than 80%. Enter f if it equals or exceeds that cut-off.

Recorded results for 8 compounds are shown here.
{"COMPOUND": "COCCNC(=O)C(c1ccc(C)o1)N(C(=O)c1snc(C(N)=O)c1N)c1ccc(C)cc1 (stereo unspecified)", "CLASS NAME": "f"}
{"COMPOUND": "O=C1NC(=O)C(c2ccccc2)(c2ccccc2)N1", "CLASS NAME": "f"}
{"COMPOUND": "CCCCc1oc2ccccc2c1C(=O)c1cc(I)c(OCCN(CC)CC)c(I)c1", "CLASS NAME": "t"}
{"COMPOUND": "O=C(Nc1ccncc1)C1c2ccccc2Oc2ccccc21", "CLASS NAME": "f"}
{"COMPOUND": "CC(C)c1cc(C(=O)Nc2cccnc2)no1", "CLASS NAME": "f"}
{"COMPOUND": "CC(=O)N=c1sc(S(N)(=O)=O)nn1C", "CLASS NAME": "t"}
{"COMPOUND": "COc1ccc(-c2cc(N3CCCC3)n3ncnc3n2)cc1", "CLASS NAME": "t"}
{"COMPOUND": "CN(C)c1nc(N)nc(CSc2nnnn2-c2cccc3ccccc23)n1", "CLASS NAME": "t"}

Consider the record given below.
Qu. Problem: For the compound `O=C(CSc1nnc(SCc2ccc(Cl)cc2)s1)N1CCN(C(=O)c2ccco2)CC1` , is viability under 80%?
Ans. f
